test target: Serine/threonine-protein kinase STK11 (Homo sapiens) (UniProt Q15831)
Sequence (whole entry): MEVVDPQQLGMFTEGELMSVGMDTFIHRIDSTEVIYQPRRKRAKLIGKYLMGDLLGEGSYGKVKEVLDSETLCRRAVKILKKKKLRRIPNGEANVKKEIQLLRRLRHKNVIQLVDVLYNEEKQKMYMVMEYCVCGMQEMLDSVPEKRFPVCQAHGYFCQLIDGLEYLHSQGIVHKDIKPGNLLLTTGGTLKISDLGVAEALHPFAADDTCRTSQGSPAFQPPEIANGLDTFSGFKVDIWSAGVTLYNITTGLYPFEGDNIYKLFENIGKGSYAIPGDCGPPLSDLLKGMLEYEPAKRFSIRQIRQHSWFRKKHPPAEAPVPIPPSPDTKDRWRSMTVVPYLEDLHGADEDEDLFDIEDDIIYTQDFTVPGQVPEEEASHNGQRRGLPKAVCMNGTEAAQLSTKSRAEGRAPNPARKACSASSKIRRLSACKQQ
experimental conditions: at 10 µM
Hi there, I'd appreciate the recorded residual activity for every entry that follows.
Write your answer as a measured quantity: the number, then the unit.

Suppose we examine the compound `Nc1n[nH]c2nc3ccccc3nc12` ; what residual activity value has been reported?
88%

Would you kindly share the measured residual activity for `CCCCc1c(-c2ccc(O)cc2)[nH]c2nccnc12` ?
73%

// query residual activity value for entry `NC(=O)Nc1sc(-c2ccc(F)cc2)cc1C(N)=O`
73%

residual activity lookup needed for `O=c1cc(N2CCNCC2)oc2c(-c3ccccc3)cccc12` , thanks.
92%

Record request: residual activity value, item `Cn1c2ccccc2c2c3c(c4c5ccccc5n(CCC#N)c4c21)CNC3=O`
96%

Which residual activity is reported for this compound? `O=c1cc(N2CCOCC2)oc2c1ccc1ccccc12`
93%
